Assayed target: HDAC6 enzyme (Homo sapiens, UniProt Q9UBN7)
Construct: transducing full length HDAC6 gene into Sf-9 insect cells; GST; purchased SignalChem; host or cells: Sf-9 insect cells
Experiment notes: HDAC6 enzyme inhibitory activity (HDAC-Glo I/II Assay kit)
Assay type: biochemical
Assay setup: 10 μM; wells without enzyme = 100% inhibition; read-out: HDAC6 inhibitory rate (%) (10 μM)
Description: HDAC6 enzyme prepared by transducing full length HDAC6 gene into Sf-9 insect cells and purifying by GST affinity column were purchased from SignalChem. Using this enzyme, HDAC6 enzyme inhibitory activities of the compound of the present invention were evaluated. Enzymes were used after preserved at −70° C. HDAC6 enzyme inhibitory activity of the compound of the present invention was measured using HDAC-Glo™ I/II Assay kit (Promega) according to the following experimental method. […]
Endpoint label: inhibition at 10 µM (%)

O=C1c2cc(-c3nnc(C(F)F)o3)ccc2CN1c1ccccc1-c1cnc2occc2c1 | 99
N#Cc1ccccc1-c1ccccc1N1Cc2ccc(-c3nnc(C(F)F)o3)cc2C1=O | 100
O=C1c2cc(-c3nnc(C(F)F)o3)ccc2CN1c1ccccc1-c1cc(F)cc(F)c1 | 101
COc1cccc(-c2ccccc2N2Cc3ccc(-c4nnc(C(F)F)o4)cc3C2=O)n1 | 100
O=C1c2cc(-c3nnc(C(F)F)o3)cc(F)c2CN1c1ccc(F)cc1-c1cnn(C(F)F)c1 | 100
O=C1c2cc(-c3nnc(C(F)F)o3)ccc2CN1c1ccccc1-c1cccc(OC(F)F)c1 | 101
COc1ccc(N2Cc3ccc(-c4nnc(C(F)F)o4)cc3C2=O)c(Br)c1 | 95
Cn1cc(-c2cc(F)nc(F)c2)c(N2Cc3ccc(-c4nnc(C(F)F)o4)cc3C2=O)n1 | 100

* * *

Assayed target: HDAC6 enzyme (Homo sapiens, UniProt Q9UBN7)
Construct: transducing full length HDAC6 gene into Sf-9 insect cells; GST; purchased SignalChem; host or cells: Sf-9 insect cells
Experiment notes: HDAC6 enzyme inhibitory activity (HDAC-Glo I/II Assay kit)
Type: biochemical
Assay setup: 10 μM; wells without enzyme = 100% inhibition; read-out: HDAC6 inhibitory rate (%) (10 μM)
Endpoint label: inhibition at 10 µM (%)

O=C(N[C@@H]1CCCC[C@H]1N1Cc2ccc(-c3nnc(C(F)F)o3)cc2C1=O)[C@@H]1CC1(F)F | 100
O=C1c2cc(-c3nnc(C(F)F)o3)ccc2CN1c1ccc(F)cc1C1CCC(NC(=O)C(F)(F)C(F)(F)F)CC1 (stereo not drawn) | 100
O=C1c2cc(-c3nnc(C(F)F)o3)cnc2CN1[C@@H]1CCCC[C@H]1n1nnc2ccccc21 | 100
COc1ccccc1-c1ccccc1N1Cc2ccc(-c3nnc(C(F)F)o3)cc2C1=O | 100
CCOc1ccccc1CN1Cc2ncc(-c3nnc(C(F)F)o3)cc2C1=O | 100
O=C1c2cc(-c3nnc(C(F)F)o3)cnc2CN1[C@@H]1CC(F)(F)CC[C@H]1NC(=O)C(F)(F)C(F)(F)F | 100
CC(F)(F)C(=O)N1CCC[C@H](N2Cc3ccc(-c4nnc(C(F)F)o4)cc3C2=O)[C@H]1c1ccc(F)cc1 (racemic) | 99
CCCCCC(=O)N[C@@H]1CCCC[C@H]1N1Cc2ccc(-c3nnc(C(F)F)o3)cc2C1=O | 99
O=C1c2cc(-c3nnc(C(F)F)o3)ccc2CN1c1ccccc1-c1ccc(F)cc1 | 98
O=C(C(F)F)N1CC[C@@H](c2ccc(F)cc2)[C@H](N2Cc3ccc(-c4nnc(C(F)F)o4)cc3C2=O)C1 (racemic) | 100
O=C1c2cc(-c3nnc(C(F)F)o3)ccc2CN1c1ccccc1-c1ccccc1 | 100
O=C1c2cc(-c3nnc(C(F)F)o3)ccc2CN1N1CCCCC1c1ccc(F)cc1 (stereo not drawn) | 101
O=C1c2cc(-c3nnc(C(F)F)o3)cc(F)c2CN1C[C@H]1COCCN1S(=O)(=O)CC(F)(F)F | 100
Cn1nc(C(F)(F)F)cc1-c1ccccc1N1Cc2c(F)cc(-c3nnc(C(F)F)o3)cc2C1=O | 99
N#CC1(CC(=O)N[C@@H]2CCCC[C@H]2N2Cc3ccc(-c4nnc(C(F)F)o4)cc3C2=O)CC1 | 96

* * *

Assayed target: HDAC6 enzyme (Homo sapiens)
Construct: transducing full length HDAC6 gene into Sf-9 insect cells; GST; purchased SignalChem; host or cells: Sf-9 insect cells
Experiment notes: HDAC6 enzyme inhibitory activity (HDAC-Glo I/II Assay kit)
Type: biochemical
Assay setup: 10 μM; wells without enzyme = 100% inhibition; read-out: HDAC6 inhibitory rate (%) (10 μM)
Endpoint label: inhibition at 10 µM (%)

O=C1c2cc(-c3nnc(C(F)F)o3)ccc2CN1Cc1ccccc1 [Example 58] | 98
C[C@H](c1ccccc1)N1Cc2ncc(-c3nnc(C(F)F)o3)cc2C1=O [Example 476] | 100
O=C1c2cc(-c3nnc(C(F)F)o3)cnc2CN1[C@@H]1CCCC(F)(F)[C@H]1NC(=O)C(F)(F)C(F)(F)F [Example 599] | 99
CC(=O)N[C@@H]1CCCC[C@H]1N1Cc2ncc(-c3nnc(C(F)F)o3)cc2C1=O [Example 449] | 100
O=C(N[C@@H]1CCOC[C@H]1N1Cc2c(F)cc(-c3nnc(C(F)F)o3)cc2C1=O)c1cccc(Cl)c1 [Example 181] | 97
O=C1c2cc(-c3nnc(C(F)F)o3)ccc2CN1c1ccccc1-c1cc(F)ccc1F [Example 309] | 97
O=C(N[C@H]1[C@H](N2Cc3ncc(-c4nnc(C(F)F)o4)cc3C2=O)CCCC1(F)F)C(C(F)(F)F)C(F)(F)F [Example 613] | 99
CCC(=O)N[C@@H]1CCCC[C@H]1N1C(=O)c2ccc(-c3nnc(C(F)F)o3)cc2C1=O [Example 166] | 97

* * *

Assayed target: HDAC6 enzyme (Homo sapiens)
Construct: transducing full length HDAC6 gene into Sf-9 insect cells; GST; purchased SignalChem; host or cells: Sf-9 insect cells
Experiment notes: HDAC6 enzyme inhibitory activity (HDAC-Glo I/II Assay kit)
Type: biochemical
Assay setup: 10 μM; wells without enzyme = 100% inhibition; read-out: HDAC6 inhibitory rate (%) (10 μM)
Endpoint label: inhibition at 10 µM (%)

O=C(N[C@@H]1CCCC[C@H]1N1Cc2ncc(-c3nnc(C(F)F)o3)cc2C1=O)c1cccc(C(F)(F)F)c1 | 99
N[C@@H]1CCCC[C@H]1N1Cc2c(F)cc(-c3nnc(C(F)F)o3)cc2C1=O | 91
O=C1c2cc(-c3nnc(C(F)F)o3)cnc2CN1Cc1cccc(-c2cnn(C(F)F)c2)c1 | 100
CC(C)(C)OC(=O)N[C@@H]1CCCC(F)(F)[C@H]1N1Cc2ncc(-c3nnc(C(F)F)o3)cc2C1=O | 100

* * *

Assayed target: HDAC6 enzyme (Homo sapiens)
Construct: transducing full length HDAC6 gene into Sf-9 insect cells; GST; purchased SignalChem; host or cells: Sf-9 insect cells
Sequence (Q9UBN7 1-1215): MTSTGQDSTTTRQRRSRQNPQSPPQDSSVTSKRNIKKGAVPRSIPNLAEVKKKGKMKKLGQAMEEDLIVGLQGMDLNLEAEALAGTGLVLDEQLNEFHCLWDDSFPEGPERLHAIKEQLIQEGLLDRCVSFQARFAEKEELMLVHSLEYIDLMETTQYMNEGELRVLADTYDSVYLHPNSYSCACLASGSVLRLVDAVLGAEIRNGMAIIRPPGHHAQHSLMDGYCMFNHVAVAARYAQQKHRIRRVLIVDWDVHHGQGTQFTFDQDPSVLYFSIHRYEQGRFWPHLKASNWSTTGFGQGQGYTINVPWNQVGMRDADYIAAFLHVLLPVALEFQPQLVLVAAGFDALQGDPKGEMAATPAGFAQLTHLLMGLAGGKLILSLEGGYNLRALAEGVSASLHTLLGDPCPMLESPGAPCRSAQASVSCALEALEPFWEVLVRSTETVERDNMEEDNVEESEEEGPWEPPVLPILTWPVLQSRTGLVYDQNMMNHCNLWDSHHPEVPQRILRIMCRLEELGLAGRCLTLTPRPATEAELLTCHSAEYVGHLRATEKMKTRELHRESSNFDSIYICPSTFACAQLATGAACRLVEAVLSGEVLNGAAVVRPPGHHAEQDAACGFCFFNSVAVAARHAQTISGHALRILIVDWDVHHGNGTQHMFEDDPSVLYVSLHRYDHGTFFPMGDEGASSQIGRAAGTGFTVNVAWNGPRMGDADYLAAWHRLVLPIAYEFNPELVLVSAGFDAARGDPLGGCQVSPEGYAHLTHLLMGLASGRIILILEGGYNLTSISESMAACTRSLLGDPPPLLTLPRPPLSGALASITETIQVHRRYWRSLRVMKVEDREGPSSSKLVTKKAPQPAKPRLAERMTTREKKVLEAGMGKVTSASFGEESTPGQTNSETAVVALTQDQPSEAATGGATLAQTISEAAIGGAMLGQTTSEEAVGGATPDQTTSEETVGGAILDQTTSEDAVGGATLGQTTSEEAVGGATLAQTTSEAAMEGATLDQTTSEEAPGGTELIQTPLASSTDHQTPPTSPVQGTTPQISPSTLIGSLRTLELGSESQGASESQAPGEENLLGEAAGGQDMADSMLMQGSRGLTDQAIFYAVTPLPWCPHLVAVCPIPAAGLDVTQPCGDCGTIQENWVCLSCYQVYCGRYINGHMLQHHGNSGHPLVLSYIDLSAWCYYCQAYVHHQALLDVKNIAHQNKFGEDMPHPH
Experiment notes: HDAC6 enzyme inhibitory activity (HDAC-Glo I/II Assay kit)
Type: biochemical
Assay setup: 10 μM; wells without enzyme = 100% inhibition; read-out: HDAC6 inhibitory rate (%) (10 μM)
Endpoint label: inhibition at 10 µM (%)

CC(C)(C)OC(=O)N[C@@H]1CCCC[C@H]1N1Cc2ccc(-c3nnc(C(F)F)o3)cc2C1=O [Example 3] | 99
Cn1cc(C(=O)c2ccccc2)c(N2Cc3ccc(-c4nnc(C(F)F)o4)cc3C2=O)n1 [Example 592] | 99
O=C1c2cc(-c3nnc(C(F)F)o3)ccc2CN1c1ccccc1-c1cccc(Cl)n1 [Example 305] | 101
Cc1nn(C)cc1-c1ccccc1N1Cc2ccc(-c3nnc(C(F)F)o3)cc2C1=O [Example 159] | 100
O=C1c2cc(-c3nnc(C(F)F)o3)ccc2CN1N1CCCCC1c1cncc(F)c1 (centres unmarked) [Example 602] | 101
C[C@@H](c1ccccc1)N1Cc2ncc(-c3nnc(C(F)F)o3)cc2C1=O [Example 475] | 100
O=C1c2cc(-c3nnc(C(F)F)o3)ccc2CN1N1CCC(F)(F)CC1c1ccccc1 (centres unmarked) [Example 530] | 100
O=C1c2cc(-c3nnc(C(F)F)o3)ccc2CN1c1ccccc1-c1ccc(C(F)(F)F)cc1 [Example 133] | 93
